Target: ST2 on human umbilical vein endothelial cells (human) (UniProt Q01638)
Sequence (Q01638 19-556): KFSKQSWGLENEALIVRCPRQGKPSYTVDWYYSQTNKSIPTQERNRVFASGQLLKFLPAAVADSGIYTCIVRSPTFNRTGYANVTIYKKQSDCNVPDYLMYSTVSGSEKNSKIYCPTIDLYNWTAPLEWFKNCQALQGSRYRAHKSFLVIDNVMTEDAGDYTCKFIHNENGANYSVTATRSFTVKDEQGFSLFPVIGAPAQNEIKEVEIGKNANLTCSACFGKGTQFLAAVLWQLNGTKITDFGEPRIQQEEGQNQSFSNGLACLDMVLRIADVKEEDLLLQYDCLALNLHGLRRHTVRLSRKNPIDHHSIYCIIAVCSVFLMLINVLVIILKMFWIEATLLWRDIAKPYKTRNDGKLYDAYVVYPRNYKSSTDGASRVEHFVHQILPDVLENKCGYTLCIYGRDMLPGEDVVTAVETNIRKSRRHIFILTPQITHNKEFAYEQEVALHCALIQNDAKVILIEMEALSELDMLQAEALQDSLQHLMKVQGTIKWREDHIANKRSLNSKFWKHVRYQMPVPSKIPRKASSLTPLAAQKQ
Assay: cell-based or functional assay
endpoint-label: IC50 (nM) Untreated, HUVEC NFkB translocation assay

Worked examples follow.
[[record]]
binder = "IL33-06 (ligand) MHHHHHHHHHHAAGLNDIFEAQKIEWHEAAIEGRSITGISPITEYLASLSTYNDQSITFALEDESYEIYVEDLKKDEKKDKVLLSYYESQHPSNESGDGVDGKMLMVTLSPTKDFWLHANNKEHSVELHKSEKPLPDQAFFVLHNMHSNSVSFECKTDPGVFIGVKDNHLALIKVDSSENLCTENILFKLSET"
measurement = "0.28 nM"

[[record]]
binder = "IL33-14 (ligand) MHHHHHHHHHHAAGLNDIFEAQKIEWHEAAIEGRSITGISPITEYLASLSTYNDQSITFALEDESYEIYVEDLKKDEKKDKVLLSYYESQHPSNESGDGVDGKMLMVTLSPTKDFWLHANNKEHSVELHKSEKPLPDQAFFVLHNMHSNCVSFESKTDPGVFIGVKDNHLALIKVDSSENLSTENILFKLSET"
measurement = "0.14 nM"


# IC50 (nM) Untreated, HUVEC NFkB translocation assay of IL33-08 (ligand) MHHHHHHHHHHAAGLNDIFEAQKIEWHEAAIEGRSITGISPITEYLASLSTYNDQSITFALEDESYEIYVEDLKKDEKKDKVLLSYYESQHPSNESGDGVDGKMLMVTLSPTKDFWLHANNKEHSVELHKSEKPLPDQAFFVLHNMHSNCVSFESKTDPGVFIGVKDNHLALIKVDSSENLCTENILFKLSET = 0.21 nM
